- EXPERIMENTAL SYSTEM: MaMsvR (Methanosarcina acetivorans C2A)
- Sequence: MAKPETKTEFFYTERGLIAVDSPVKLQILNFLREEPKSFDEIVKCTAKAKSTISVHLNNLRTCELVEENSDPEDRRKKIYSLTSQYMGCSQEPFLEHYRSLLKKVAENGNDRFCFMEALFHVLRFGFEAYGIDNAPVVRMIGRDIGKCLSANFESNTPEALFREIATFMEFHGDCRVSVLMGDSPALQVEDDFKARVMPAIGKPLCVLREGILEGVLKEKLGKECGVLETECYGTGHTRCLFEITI
- ASSAY DETAILS: EMSA
- MEASUREMENT CONTEXT: EMSA at room temperature, 10 nM DNA and 200 nM MsvR (50 nM DNA and 1 uM protein for 50 bp oligos), with or without 5 mM DTT; binding buffer as in cited ref 9 …

- POLYMER SEQUENCE: "AGATCCCCCAGCGTCTCCAGAACTTGCGGAGTGAATCCCATTTTTTCTCCCATACTCTCCAGTATCTCTTCATGCTCTGTCATTTTTCCAGTCTCCTTACTCCGATAACTACCAGCTGTTGATATTTATATTGGTTATTTATATTTATTATTAATTAATATTTCTCAAATCTGTGTTCAGGCCTTTTACTTCCTCATTCCTGTCCAAAGGCCCTTTATTAAAGTCCGCATCCTTTGTTATGGGCTGCACA (double strand) [Ma P3736]"
  binding: "no binding"
- POLYMER SEQUENCE: "TCAGCTTTTCTTACGTTTGACCGTTATAGGAATAATTTCGGCCTTCAACTCTGCAATGGCTACACCCAGGGGGTCCAGCCGCCCGTCATCATCAACCAGGACAGGAGCCCCCATTGCTATCTGCAATGCTCTTGCACCTACAATTCGTGCACGCTCGAACCGGGTATACTTTT (double strand) [Ma rpoK]"
  binding: "no binding"
- POLYMER SEQUENCE: "AGGCTTTACAAAGTAAATAAAGGGGAGAAAAAGGGTTAAAACCTGAATAAGAAGTAAAGAAAACTCCGATATAAGCAAAAGTATTTATAGAATCCGATTACAAAATCAGAGGTTAGAAGGAATTTATATTAACAAAAAGAAGCTTGGAGGATAATATGGCAAAAGTTATACCATTTGCACCAATCGAACGCCTGATAAGGACGGCTGGTGCCCACAGAGTAAGTGAGA (double strand) [Ma PhmaA]"
  binding: "no binding"

----------
- EXPERIMENTAL SYSTEM: MaMsvR (Methanosarcina acetivorans C2A)
- Sequence: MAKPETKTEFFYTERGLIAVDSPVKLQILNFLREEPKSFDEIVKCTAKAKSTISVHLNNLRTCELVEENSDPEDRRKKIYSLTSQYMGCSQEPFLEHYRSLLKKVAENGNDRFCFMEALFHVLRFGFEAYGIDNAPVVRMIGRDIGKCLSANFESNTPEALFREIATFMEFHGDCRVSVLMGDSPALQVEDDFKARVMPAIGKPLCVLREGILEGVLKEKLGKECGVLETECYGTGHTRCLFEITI
- ASSAY DETAILS: EMSA
- MEASUREMENT CONTEXT: EMSA at room temperature, 10 nM DNA and 200 nM MsvR (50 nM DNA and 1 uM protein for 50 bp oligos), with or without 5 mM DTT; binding buffer as in cited ref 9 …

- POLYMER SEQUENCE: "CCGAAAACATTCCTGGCAATCTCCGGGATATTATATATTTCCATACTTTTCCTCCAACTCTCTTCTGAATCATTTACTCTCAAAATAAAATGTACCAAAATACGGTACACAGAAATCTTTAACTGTTCCCCACAAGCTCAAAACAGTATTATGGTGTAGCTATGTTAATTCGATATATTTATTATATTGATTAAATATTTTTGATAAGAACCTCTTTCTATTTTTACCTGTTCGTTCTGTCAGA (double strand) [Ma P3381]"
  EXPERIMENTAL SYSTEM: "MaMsvR (Methanosarcina acetivorans C2A)"
  binding: "no binding"
- POLYMER SEQUENCE: "TTACTTTGCCGTTTCCCCCCATTTTCTTTATATCTTTTTATATCTGTATTATTATATTTCAAACATGATTATTCGTAGTCACGCGAACGTTTTATATATTCAAAACGCAACTTATCTAAAGATATTATGGCAAAACCTGAGACCAAAACTGAATTCTTTTATACCGAAAGAGGGCTCATAGCCGTAGACAGCCCTGTTAAACTCCAGATCCTGAATTTTCTCAGGG (double strand) [Ma PmsvR (PCR)]"
  EXPERIMENTAL SYSTEM: "MaMsvR (Methanosarcina acetivorans C2A)"
  binding: "binds"
- POLYMER SEQUENCE: "AAAGTAAGAAATTCTCTCTATATGTATGGGTTTATGATATCTCAGACCTGAAAATATGCGGATAAAATTCGGATAAAACAGGATTTCCTGATTTGGAGGGAAAGTAATGAAGTGTTACGAATGTGCCAGAGAGGGCAAAGATACGGATGCTGTGGGAATTTGTATCGTATGTGGAAGAGGAGTTTGCAAAGAACACCTTATCCATGAGGAAACACCTGCGTGGGAAGGCGACTATCCTAT (double strand) [Ma P3734]"
  EXPERIMENTAL SYSTEM: "MaMsvR (Methanosarcina acetivorans C2A)"
  binding: "no binding"
- POLYMER SEQUENCE: "GCAGATCTCGCAGCGGTACTTTTCTCCTTTTCTGGATACAGCCATAGCTACTTCACCTCCTTGCTTCTGAATTTAAATACCTCAAAACTTTCAAGCGGGCTTTCCCCTTCCCTGTAATCCCGAAATTACTCCGGGTTTCACCAACACTCATACATGTTAACCATTCTTTGTATATAATTGTAAGGACTTTTTAAAAAGTAACATAAATTTTTTCCTTCTATTCGGGTATGTCTTA (double strand) [Ma P4664]"
  EXPERIMENTAL SYSTEM: "MaMsvR (Methanosarcina acetivorans C2A)"
  binding: "no binding"

Cited source for all entries: paper PMC3729527
